These data points were gathered from paper PMC11162469.

Target: rat RXFP2 (Rattus norvegicus, UniProt F7EMH8)
Sequence (F7EMH8 20-737): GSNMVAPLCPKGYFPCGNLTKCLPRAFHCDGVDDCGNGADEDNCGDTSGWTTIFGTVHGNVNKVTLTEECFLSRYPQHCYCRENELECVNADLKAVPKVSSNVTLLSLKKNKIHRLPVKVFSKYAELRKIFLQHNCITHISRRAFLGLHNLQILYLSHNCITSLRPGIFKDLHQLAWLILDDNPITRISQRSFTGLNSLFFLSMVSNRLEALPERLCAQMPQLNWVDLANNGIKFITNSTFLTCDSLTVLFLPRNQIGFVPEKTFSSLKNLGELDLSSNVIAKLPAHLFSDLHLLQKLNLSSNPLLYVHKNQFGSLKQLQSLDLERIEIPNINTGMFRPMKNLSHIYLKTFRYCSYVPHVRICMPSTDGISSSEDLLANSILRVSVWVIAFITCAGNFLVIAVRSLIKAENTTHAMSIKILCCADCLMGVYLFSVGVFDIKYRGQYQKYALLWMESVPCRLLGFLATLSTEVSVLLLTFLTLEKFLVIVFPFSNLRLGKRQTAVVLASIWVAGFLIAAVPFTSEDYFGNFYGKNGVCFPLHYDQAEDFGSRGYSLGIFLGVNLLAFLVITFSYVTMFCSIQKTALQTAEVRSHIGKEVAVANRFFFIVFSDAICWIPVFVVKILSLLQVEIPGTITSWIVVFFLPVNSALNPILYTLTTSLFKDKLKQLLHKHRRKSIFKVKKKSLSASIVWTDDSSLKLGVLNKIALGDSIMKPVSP
Test: INSL3-stimulated CYP11B2 mRNA expression in H295R stably expressing rat RXFP2
Assay type: cell-based
Parameters: expressed in transfected cells
Conditions: INSL3 EC80 (3.5 nM), 48 h, qPCR; N = 2
Procedure: RXFP2 antagonists were added to H295R-rRXFP2 before addition of INSL3 EC80 (3.5 nM) for 48 h, whereupon the cells and supernatants were collected. CYP11B1 and CYP11B2 mRNA were determined by qPCR and the RXFP2 blocker potencies were calculated (Fig. 5a). Fifteen antibodies have IC50s < 50 nM, and three of the top antibodies (1F2, 4G6, and 2D4) were selected for evaluation in steroid hormone secretion assays by ELISA. Data entered as XY table, with x = [Inhibitor] […]
Endpoint Label: IC50 (nM)

| Molecule | Endpoint Label | Unit | Observed Result |
| --- | --- | --- | --- |
| 1F2: RXFP2 monoclonal antibody from hybridoma, recombinantly expressed in a rat IgG2b backbone (antibody, V domains shown) VH: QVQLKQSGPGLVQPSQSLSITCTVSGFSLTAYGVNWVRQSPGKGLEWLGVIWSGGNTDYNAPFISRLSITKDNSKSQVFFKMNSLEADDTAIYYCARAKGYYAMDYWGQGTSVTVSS VL: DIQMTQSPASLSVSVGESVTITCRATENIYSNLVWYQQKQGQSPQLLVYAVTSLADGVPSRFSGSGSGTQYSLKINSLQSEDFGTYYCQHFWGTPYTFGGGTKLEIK | IC50 | nM | 0.1 |
